src = patent US20120316071A1

System tested: T1, rHuman P-Cadherin/Fc Chimera, CF (R&D Systems Cat#861-PC) (human, UniProt P22223 108-654)
T1 construct: Bought recombinant Fc chimera; Fc part of the bought chimera not given
Assay explanation: ECL multispot (MSD), antigen spotted, Fab in solution;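 also: purified Fab incubated 1 h at 20 °C on antigen-spotted wells, bound Fab detected via TAG detection antibody, ECL compared with each well's blank, ratio of 4 or above scored as hit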
Please respond with reported ECL signal for every item in the list.
Answers are plain numbers.

Binder: Fab VH1-46_IGHD6-6*01_IGHJ1*01 S102A/S103P/S104F/H111F (APFF) & L6_IGKJ1*01 S28H (Fab, V domains shown, Fab; VH cloned into Plasmid A (CH1, His6 and Flag tags) and VL into Plasmid C (kappa CL); also called APFF / S28H) VH: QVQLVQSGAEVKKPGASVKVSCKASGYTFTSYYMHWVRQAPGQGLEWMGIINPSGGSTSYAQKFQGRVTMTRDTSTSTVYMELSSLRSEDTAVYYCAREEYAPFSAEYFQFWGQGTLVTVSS VL: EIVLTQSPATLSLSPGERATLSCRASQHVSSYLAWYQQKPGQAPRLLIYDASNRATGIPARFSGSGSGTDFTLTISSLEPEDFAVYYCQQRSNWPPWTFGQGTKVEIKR
Assay value: 447
--
Binder: Fab VH1-46_IGHD6-6*01_IGHJ1*01 S102A/S103P/S104F/H111F (APFF) & L6_IGKJ1*01 S28I (Fab, V domains shown, Fab; VH cloned into Plasmid A (CH1, His6 and Flag tags) and VL into Plasmid C (kappa CL); also called APFF / S28I) VH: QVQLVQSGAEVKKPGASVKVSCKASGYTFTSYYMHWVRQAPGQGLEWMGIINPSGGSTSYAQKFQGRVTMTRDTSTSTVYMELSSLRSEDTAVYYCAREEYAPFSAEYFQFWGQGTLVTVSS VL: EIVLTQSPATLSLSPGERATLSCRASQIVSSYLAWYQQKPGQAPRLLIYDASNRATGIPARFSGSGSGTDFTLTISSLEPEDFAVYYCQQRSNWPPWTFGQGTKVEIKR
Assay value: 416

Prompt: Respond only with ECL signal recorded for Fab VH1-46_IGHD6-6*01_IGHJ1*01 S102A/S103P/S104F/H111F (APFF) & L6_IGKJ1*01 S28E (Fab, V domains shown, Fab; VH cloned into Plasmid A (CH1, His6 and Flag tags) and VL into Plasmid C (kappa CL); also called APFF / S28E) VH: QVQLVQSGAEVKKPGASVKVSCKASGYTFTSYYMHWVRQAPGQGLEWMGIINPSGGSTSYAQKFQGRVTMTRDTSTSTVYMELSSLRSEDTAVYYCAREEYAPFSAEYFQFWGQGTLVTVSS VL: EIVLTQSPATLSLSPGERATLSCRASQEVSSYLAWYQQKPGQAPRLLIYDASNRATGIPARFSGSGSGTDFTLTISSLEPEDFAVYYCQQRSNWPPWTFGQGTKVEIKR
Completion: 393
